biological target: T790M/L858R double mutant EGFR kinase (Homo sapiens (Human), UniProt P00533, L858R/T790M); assay: z'-lyte assay of inhibitory activity on T790M/L858R double mutant EGFR kinase; type: biochemical; conditions: ratio of enzyme IC50 values
Short version: Selective inhibitory activity against enzymes [IC50 (EGFR WT)/IC50 (T790M/L858R)] at least 10 is y, less is n.

                                   molecule  assigned_class
0  C=CC(=O)Nc1cc(Nc2ncc3ccc(-c4cnn(C)c4)n3n2)c(OC)cc1N(C)CCN(C)C [Compound J-1]               n
1  C=CC(=O)Nc1cc(Nc2ncc3c(C)cc(-c4cnn(C)c4)n3n2)c(OC)cc1N(C)CCN(C)C [Compound J-20]               y
2  C=CC(=O)Nc1cc(Nc2ncc3ccc(-c4cccnc4)n3n2)c(OC)cc1N(C)CCN(C)C [Compound J-6]               n
3  C=CC(=O)Nc1cc(Nc2ncc3ccc(-c4cnn(C)c4)n3n2)c(OC)cc1N1CCN(C)CC1 [Compound J-4]               y

====

biological target: wild-type EGFR kinase (Homo sapiens (Human), UniProt P00533); details: read-out: EGFR WT (IC50/μM); z'-lyte assay, 10 μM ATP
Sequence (P00533 25-1210): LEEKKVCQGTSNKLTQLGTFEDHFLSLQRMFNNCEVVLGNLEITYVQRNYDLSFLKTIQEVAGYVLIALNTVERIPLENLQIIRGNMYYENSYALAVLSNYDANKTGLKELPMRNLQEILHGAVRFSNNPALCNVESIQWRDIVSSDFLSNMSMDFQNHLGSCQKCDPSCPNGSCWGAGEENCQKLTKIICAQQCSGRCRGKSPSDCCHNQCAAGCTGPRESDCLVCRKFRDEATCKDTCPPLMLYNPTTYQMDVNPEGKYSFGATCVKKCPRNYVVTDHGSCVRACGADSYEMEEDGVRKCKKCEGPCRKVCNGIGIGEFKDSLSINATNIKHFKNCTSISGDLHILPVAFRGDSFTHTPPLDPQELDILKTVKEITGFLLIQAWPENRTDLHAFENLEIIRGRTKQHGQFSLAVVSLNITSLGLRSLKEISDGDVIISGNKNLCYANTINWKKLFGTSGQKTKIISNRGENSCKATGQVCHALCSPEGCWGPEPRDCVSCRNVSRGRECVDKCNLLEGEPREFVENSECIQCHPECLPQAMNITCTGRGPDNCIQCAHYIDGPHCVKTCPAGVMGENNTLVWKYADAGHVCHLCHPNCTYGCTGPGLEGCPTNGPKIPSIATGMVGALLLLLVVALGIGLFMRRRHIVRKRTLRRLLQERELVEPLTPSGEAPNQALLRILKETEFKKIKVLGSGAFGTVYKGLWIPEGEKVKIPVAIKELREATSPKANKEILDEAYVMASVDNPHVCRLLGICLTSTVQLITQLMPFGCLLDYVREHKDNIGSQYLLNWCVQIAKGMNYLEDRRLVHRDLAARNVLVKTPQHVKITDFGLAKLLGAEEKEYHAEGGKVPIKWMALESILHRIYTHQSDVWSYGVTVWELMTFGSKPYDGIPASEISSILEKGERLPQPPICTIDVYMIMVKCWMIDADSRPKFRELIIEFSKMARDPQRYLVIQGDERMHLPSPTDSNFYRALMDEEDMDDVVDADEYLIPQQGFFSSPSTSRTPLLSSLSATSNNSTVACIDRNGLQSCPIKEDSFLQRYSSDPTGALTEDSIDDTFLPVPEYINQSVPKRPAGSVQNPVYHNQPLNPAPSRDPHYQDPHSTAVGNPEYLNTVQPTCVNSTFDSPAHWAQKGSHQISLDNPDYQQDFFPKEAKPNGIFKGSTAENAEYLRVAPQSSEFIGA
endpoint: IC50 (µM)

In [3]: df
Out[3]:
                  compound_structure_string  reported_measurement
0  C=CC(=O)Nc1cc(Nc2ncc3ccc(-c4cnc5ccccc5c4)n3n2)c(OC)cc1N(C)CCN(C)C                 0.003
1  C=CC(=O)Nc1cc(Nc2ncc3ccc(-c4cnn(C)c4)n3n2)c(OC)cc1N1CCC(N(C)C)CC1                 0.023
2  C=CC(=O)Nc1cc(Nc2ncc3ccc(-c4cnc5ccccc5c4)n3n2)c(OC)cc1N1CCC(N(C)C)CC1                 0.021
3  C=CC(=O)Nc1cc(Nc2ncc3ccc(C)n3n2)c(OC)cc1N(C)CCN(C)C                 0.105
4  C=CC(=O)Nc1cc(Nc2ncc3ccc(-c4ccccc4)n3n2)c(OC)cc1N(C)CCN(C)C                  0.01
5  C=CC(=O)Nc1cc(Nc2ncc3ccc(-c4cnn(C)c4)n3n2)c(OC)cc1OCCN(C)C                  0.01
6  C=CC(=O)Nc1cc(Nc2ncc3ccc(-c4cnn(C)c4)n3n2)c(OC)cc1N1CCN(C)CC1                 0.035

====

Below is a list of entries, each paired with its recorded log10(IC50) value.
biological target: EGFR phosphorylation in A431 (EGFR wild-type) cells (Homo sapiens (Human)); test: Inhibition of EGFR phosphorylation in A431 cells (ELISA); format: cell-based; conditions: 1 h compound treatment, EGF stimulation, read-out: A431 cell (IC50/μM)
Sequence (P00533 25-1210): as above
endpoint: log10(IC50) (log10 of the value in µM)

>>> df
                  compound_structure_string  reported_measurement
0  C=CC(=O)Nc1cc(Nc2ncc3ccc(-c4ccn(C)c4)n3n2)c(OC)cc1N(C)CCN(C)C                 -1.64
1  C=CC(=O)Nc1cc(Nc2ncc3ccc(-c4cnn(C)c4)n3n2)c(OC)cc1OCCN(C)C                 -1.03
2  C=CC(=O)Nc1cc(Nc2ncc3ccc(-c4cccnc4)n3n2)c(OC)cc1N(C)CCN(C)C                 -0.51
3  C=CC(=O)Nc1cc(Nc2ncc3ccc(C)n3n2)c(OC)cc1N(C)CCN(C)C                 -0.04
4  C=CC(=O)Nc1cc(Nc2ncc3ccc(C4CC4)n3n2)c(OC)cc1N(C)CCN(C)C                 -0.31
5  C=CC(=O)Nc1cc(Nc2cn3c(-c4cccnc4)cnc3cn2)c(OC)cc1N(C)CCN(C)C                  0.06
6  C=CC(=O)Nc1cc(Nc2ncc3ccc(-c4cnn(C)c4)n3n2)c(OC)cc1N1CCC(N(C)C)CC1                 -0.52
7  C=CC(=O)Nc1cc(Nc2cn3c(-c4cnn(C)c4)cnc3cn2)c(OC)cc1N1CCC(N(C)C)CC1                 -0.49

====

target: EGFR phosphorylation in H1975 (EGFR T790M mutant) cells (Homo sapiens (Human), UniProt P00533, L858R/T790M); assay: Inhibition of EGFR phosphorylation in H1975 cells (ELISA); format: cell-based; conditions: ELISA of EGFR phosphorylation, 1 h compound treatment; read-out: H1975 cell (IC50/μM);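 also: Phospho-EGFR in cell lysates measured by capture-antibody ELISA with TMB substrate after compound exposure, cells given DMSO alone (0.5% final) serving as control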
Sequence (P00533 25-1210 T790M/L858R): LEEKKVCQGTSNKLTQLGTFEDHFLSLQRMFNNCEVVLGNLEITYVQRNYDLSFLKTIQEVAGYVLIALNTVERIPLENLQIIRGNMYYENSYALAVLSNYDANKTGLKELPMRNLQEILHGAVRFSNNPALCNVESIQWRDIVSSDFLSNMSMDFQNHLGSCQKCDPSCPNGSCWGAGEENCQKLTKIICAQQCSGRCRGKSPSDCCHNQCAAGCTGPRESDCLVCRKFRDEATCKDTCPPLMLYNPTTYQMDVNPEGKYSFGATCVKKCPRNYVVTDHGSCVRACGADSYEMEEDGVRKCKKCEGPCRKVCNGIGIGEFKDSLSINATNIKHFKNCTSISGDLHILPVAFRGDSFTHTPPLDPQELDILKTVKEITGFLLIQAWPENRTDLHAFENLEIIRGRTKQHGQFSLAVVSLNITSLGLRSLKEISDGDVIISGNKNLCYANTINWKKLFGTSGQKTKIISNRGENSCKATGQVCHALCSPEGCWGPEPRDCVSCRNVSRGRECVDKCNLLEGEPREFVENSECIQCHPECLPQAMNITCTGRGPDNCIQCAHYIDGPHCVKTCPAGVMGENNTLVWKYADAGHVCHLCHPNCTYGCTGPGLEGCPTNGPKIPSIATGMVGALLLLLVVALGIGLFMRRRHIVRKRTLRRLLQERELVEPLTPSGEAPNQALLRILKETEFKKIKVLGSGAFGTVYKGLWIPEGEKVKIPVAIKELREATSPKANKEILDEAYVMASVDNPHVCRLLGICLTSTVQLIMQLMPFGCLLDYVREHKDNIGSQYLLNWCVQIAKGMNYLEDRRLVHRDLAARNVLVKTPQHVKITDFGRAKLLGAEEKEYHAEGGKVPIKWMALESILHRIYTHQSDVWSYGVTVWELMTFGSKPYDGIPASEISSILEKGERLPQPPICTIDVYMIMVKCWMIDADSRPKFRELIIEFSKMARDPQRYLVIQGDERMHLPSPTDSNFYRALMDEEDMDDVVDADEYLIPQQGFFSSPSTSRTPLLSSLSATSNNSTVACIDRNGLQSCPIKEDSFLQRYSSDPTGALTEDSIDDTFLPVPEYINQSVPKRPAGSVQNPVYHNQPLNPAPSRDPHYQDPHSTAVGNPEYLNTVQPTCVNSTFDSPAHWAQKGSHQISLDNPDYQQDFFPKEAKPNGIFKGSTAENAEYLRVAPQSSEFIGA
IC50 less than 0.1 µM is 1; IC50 greater than or equal to 0.1 µM is 0.

>>> print(df.to_string())
                   compound_structure_string  assigned_class
 0  C=CC(=O)Nc1cc(Nc2cn3c(-c4ccn(C)c4)cnc3cn2)c(OC)cc1N(C)CCN(C)C               0
 1  C=CC(=O)Nc1cc(Nc2ncc3ccc(-c4cnn(C)c4)n3n2)c(OC)cc1N1CCN(C)CC1               1
 2  C=CC(=O)Nc1cc(Nc2ncc3ccc(-c4cnc5ccccc5c4)n3n2)c(OC)cc1N1CCC(N(C)C)CC1               1
 3  C=CC(=O)Nc1cc(Nc2cn3c(-c4cccnc4)cnc3cn2)c(OC)cc1N(C)CCN(C)C               0
 4  C=CC(=O)Nc1cc(Nc2ncc3ccc(C4=CCCCC4)n3n2)c(OC)cc1N(C)CCN(C)C               0
 5  C=CC(=O)Nc1cc(Nc2ncc3ccc(C)n3n2)c(OC)cc1N(C)CCN(C)C               0
 6  C=CC(=O)Nc1cc(Nc2ncc3ccc(-c4cnn(C)c4)n3n2)c(OC)cc1N(C)CCN(C)C               1
 7  C=CC(=O)Nc1cc(Nc2ncc3ccc(-c4cnn(C)c4)n3n2)c(OC)cc1OCCN(C)C               1
 8  C=CC(=O)Nc1cc(Nc2ncc3ccc(-c4ccn(C)c4)n3n2)c(OC)cc1N(C)CCN(C)C               1
 9  C=CC(=O)Nc1cc(Nc2ncc3ccc(-c4cnn(C)c4)n3n2)c(OC)cc1N1CCC(N(C)C)CC1               1
10  C=CC(=O)Nc1cc(Nc2ncc3ccc(-c4ccccc4)n3n2)c(OC)cc1N(C)CCN(C)C               1
11  C=CC(=O)Nc1cc(Nc2ncc3ccc(-c4cccnc4)n3n2)c(OC)cc1N(C)CCN(C)C               1
12  C=CC(=O)Nc1cc(Nc2cn3c(-c4cnn(C)c4)cnc3cn2)c(OC)cc1N1CCC(N(C)C)CC1               0
13  C=CC(=O)Nc1cc(Nc2ncc3ccc(C4CC4)n3n2)c(OC)cc1N(C)CCN(C)C               0

====

target: T790M/L858R double mutant EGFR kinase (Homo sapiens (Human), UniProt P00533, L858R/T790M); assay: z'-lyte assay of inhibitory activity on T790M/L858R double mutant EGFR kinase; format: biochemical; conditions: z'-lyte assay, 25 μM ATP
IC50 less than 0.002 µM is rule met; IC50 greater than or equal to 0.002 µM is rule not met.

>>> df
                                    compound  assigned_class
 0  C=CC(=O)Nc1cc(Nc2ncc3ccc(-c4cnn(C)c4)n3n2)c(OC)cc1N(C)CCN(C)C [Compound J-1]        rule met
 1  C=CC(=O)Nc1cc(Nc2ncc3ccc(C)n3n2)c(OC)cc1N(C)CCN(C)C [Compound J-9]    rule not met
 2  C=CC(=O)Nc1cc(Nc2ncc3ccc(-c4ccn(C)c4)n3n2)c(OC)cc1N(C)CCN(C)C [Compound J-12]        rule met
 3  C=CC(=O)Nc1cc(Nc2ncc3ccc(-c4cnn(C)c4)n3n2)c(OC)cc1OCCN(C)C [Compound J-3]        rule met
 4  C=CC(=O)Nc1cc(Nc2ncc3ccc(-c4cnc5ccccc5c4)n3n2)c(OC)cc1N1CCC(N(C)C)CC1 [Compound J-13]    rule not met
 5  C=CC(=O)Nc1cc(Nc2ncc3ccc(C4=CCCCC4)n3n2)c(OC)cc1N(C)CCN(C)C [Compound J-5]    rule not met
 6  C=CC(=O)Nc1cc(Nc2ncc3c(C)cc(-c4cnn(C)c4)n3n2)c(OC)cc1N(C)CCN(C)C [Compound J-20]    rule not met
 7  C=CC(=O)Nc1cc(Nc2ncc3ccc(C4CC4)n3n2)c(OC)cc1N1CCC(N(C)C)CC1 [Compound J-15]    rule not met
 8  C=CC(=O)Nc1cc(Nc2ncc3c(C)cc(-c4cnn(C)c4)n3n2)c(OC)cc1N1CCC(N(C)C)CC1 [Compound J-21]    rule not met
 9  C=CC(=O)Nc1cc(Nc2ncc3ccc(-c4cccnc4)n3n2)c(OC)cc1N(C)CCN(C)C [Compound J-6]    rule not met
10  C=CC(=O)Nc1cc(Nc2ncc3ccc(-c4cnc5ccccc5c4)n3n2)c(OC)cc1N(C)CCN(C)C [Compound J-10]        rule met
11  C=CC(=O)Nc1cc(Nc2ncc3ccc(-c4ccccc4)n3n2)c(OC)cc1N(C)CCN(C)C [Compound J-11]    rule not met
